# experimental system: T1, Sulfotyrosine D6 biotin peptide (human)
# T1 construct: also called D6 peptide
# T1 peptide: ENSSFY[sY][sY]D[sY]LDEVAFGGK(Biotin)
# measurement notes: ELISA, 50 nM mAb
Non-standard residues stand in square brackets, D forms with d. No end group written: not given here. *: point of attachment. Biotin = O=C1N[C@H]2[C@H](CS[C@H]2CCCCC(=O)*)N1; sY = N[C@@H](Cc1ccc(OS(=O)(=O)O)cc1)C(=O)O
recorded endpoint: binding normalized to PSGL-1
Output: the number by itself.

Look over these answered cases.
binder	binding normalized to PSGL-1
05H03 (antibody, IgG4, V domains shown) VH: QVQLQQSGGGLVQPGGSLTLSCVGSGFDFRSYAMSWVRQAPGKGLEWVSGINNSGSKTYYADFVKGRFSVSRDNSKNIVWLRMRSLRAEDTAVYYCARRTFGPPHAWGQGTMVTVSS VL: DIVMTQSPLSLSVTPGEPASISCRSSQSLLHSNGYKYLDWYLQKPGQSPQLLIYMGSNRASGVPDRFSGSGSGTDFTLKISRVEAEDVGVYYCMQGLQSPLTFGGGTKVEIE	0.8
08C07 (antibody, IgG4, V domains shown) VH: QMQLVQSGAEVKKPGSSVKVSCKASGGTFSNYGMIWVRQAPRQGLEWMGRIIPFLDKPDYSEKFQDRITFTADKSTSTVYMELRGLRSDDTAVYYCAKWTSTLQGITTGQTWGQGTLVTVSS VL: QPVLTQPPSASGTPGQRVTISCSGSSSNIGGSYMYWYQQFPGTAPKLLIYRNNQRPSGVPDRFSGSKSGTSASLAISGLRSEDEADYYCAAWDVSLSGWVFGGGTKLTVL	1.2

Query: For 03E05 (antibody, IgG4, V domains shown) VH: EVKLLESGGDLAQTGGSLRLSCVASGFTFSSYPMSWVRQAPGKGLEWVSAIRRSGATQYADSVKGRFTISRDNSKNTVYLQMNSLRVEDTAVYYCAKGTYDLGQGTLVTVSS VL: DIVMTQTPLSLPVTLGQPASISCRSSQSLVYSDGNTYLNWFHQRPGQSPRRLIYKVSNRDSGVPDRFSGSGSDTEFTLKISRVEAEDVGVYYCMQATHWPLTFGGGTKVEIK , write its binding normalized to PSGL-1.
Response: 0.52
